B1: EMD (parent)
chain: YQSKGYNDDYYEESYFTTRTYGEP

# Variants of: B1
# ASSAY PROCEDURE: protein stability index of a GFP-peptide fusion (GPS, HEK-293T) (PSI 1-6); higher = more stable;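 also: lentivirally expressed fusions sorted by FACS into six bins by GFP to DsRed ratio, PSI derived from sequencing read proportions per bin multiplied by bin number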
# TEST PARAMETERS: c terminus: a fixed tail appended
Output true (1) for protein stability index not less than 2; output false (0) otherwise.

E23I: false (0)
E23A: false (0)
Y21G: true (1)
G5D: true (1)
D8K: false (0)
S14W: true (1)

State whether the measured protein stability index reaches 2, counting equality as reaching it, for E23M false (0)

State whether the measured protein stability index reaches 2, counting equality as reaching it, for Y10I true (1)

State whether the measured protein stability index reaches 2, counting equality as reaching it, for T17L true (1)
